tested on: HT1080; test: relative viability vs DMSO control (72 h) (fraction); higher = more viable cells; conditions: 0.00457 µM
Let's look at some molecules and their measured relative viability.
Endpoint Name: relative viability

INSERT INTO measurements (chemical_smiles, number) VALUES
  ('CN(C)CCCOc1ccc(-c2ccc3ncc4c(c3c2)n(C2CCOCC2)c(=O)n4C)cn1', 1.12),
  ('CN(C)C/C=C/C(=O)Nc1cc2c(Nc3ccc(F)c(Cl)c3)ncnc2cc1O[C@H]1CCOC1', 1.08),
  ('COc1cc(Nc2ncc3c(n2)-c2ccc(Cl)cc2C(c2c(F)cccc2OC)=NC3)ccc1C(=O)O', 1.06),
  ('CN(C)C(=O)c1cc2cnc(Nc3ccc(N4CCNCC4)cn3)nc2n1C1CCCC1', 1.08),
  ('CO[C@H]1C[C@@H]2CC[C@@H](C)[C@@](O)(O2)C(=O)C(=O)N2CCCC[C@H]2C(=O)O[C@H]([C@H](C)C[C@@H]2CC[C@@H](OC(=O)C(C)(CO)CO)[C@H](OC)C2)CC(=O)[C@H](C)/C=C(\C)[C@@H](O)[C@@H](OC)C(=O)[C@H](C)C[C@H](C)/C=C/C=C/C=C/1C', 1.01);

###

Attribute: relative viability
test system: SW982; assay: relative viability vs DMSO control (72 h) (fraction); higher = more viable cells; details: 0.00051 µM
Endpoint Name: relative viability

INSERT INTO assay_data (chemical_smiles, result) VALUES
  ('COc1cc(N2CCC(N3CCN(C)CC3)CC2)ccc1Nc1ncc(Cl)c(Nc2ccccc2P(C)(C)=O)n1', 1.03),
  ('CCS(=O)(=O)N1CC(CC#N)(n2cc(-c3ncnc4[nH]ccc34)cn2)C1', 0.983),
  ('C#Cc1cccc(Nc2ncnc3cc4c(cc23)OCCOCCOCCO4)c1', 1.03),
  ('O=C1CCc2c(Oc3ccc4c(c3)[C@@H]3[C@H](O4)[C@H]3c3nc4cc(C(F)(F)F)ccc4[nH]3)ccnc2N1', 1.03);

###

test system: RD; assay: relative viability vs DMSO control (72 h) (fraction); higher = more viable cells; details: 10 µM
Entries and their relative viability values follow.
Endpoint Name: relative viability

INSERT INTO assay_data (compound, endpoint_name, number) VALUES
  ('Cc1cc(F)c(C(=O)Nc2cccc(-c3nncn3C(C)C)n2)cc1-n1cnc(C2CC2)c1', 'relative viability', 1.11),
  ('Cc1cc2c(F)c(Oc3ncnn4cc(OC[C@@H](C)OC(=O)[C@H](C)N)c(C)c34)ccc2[nH]1 [Brivanib_alaninate]', 'relative viability', 0.874),
  ('CS(=O)(=O)CCNCc1ccc(-c2ccc3ncnc(Nc4ccc(OCc5cccc(F)c5)c(Cl)c4)c3c2)o1', 'relative viability', 0.0224),
  ('O=S(=O)(c1cccc2c(O)nccc12)N1CCCNCC1 [Hydroxyfasudil]', 'relative viability', 1.18),
  ('CO[C@H]1C[C@@H]2CC[C@@H](C)[C@@](O)(O2)C(=O)C(=O)N2CCCC[C@H]2C(=O)O[C@H]([C@H](C)C[C@@H]2CC[C@@H](OC(=O)C(C)(CO)CO)[C@H](OC)C2)CC(=O)[C@H](C)/C=C(\C)[C@@H](O)[C@@H](OC)C(=O)[C@H](C)C[C@H](C)/C=C/C=C/C=C/1C', 'relative viability', 0.441),
  ('Cc1c2oc3c(C)ccc(C(=O)N[C@@H]4C(=O)N[C@H](C(C)C)C(=O)N5CCC[C@H]5C(=O)N(C)CC(=O)N(C)[C@@H](C(C)C)C(=O)O[C@@H]4C)c3nc-2c(C(=O)N[C@@H]2C(=O)N[C@H](C(C)C)C(=O)N3CCC[C@H]3C(=O)N(C)CC(=O)N(C)[C@@H](C(C)C)C(=O)O[C@@H]2C)c(N)c1=O', 'relative viability', 0.0653);
